- assay info: Stability of peptides in simulated intestinal fluid (pH 7.5)
- Type: in vitro ADME
- cond: simulated gi fluid, pH 7.5
- Protocol: b) Stability of Peptides in Human Plasma, Simulated Gastric Fluid, Intestinal Fluid and Liver Microsomes (Ex-Vivo): Different short-chain peptides (final concentration 2 μM) were incubated with either pooled human plasma (7.5 μL) or simulated gastric fluid (pH 1.5; composition HCl, NaCl and Pepsin) or simulated intestinal fluid (pH 7.5) or human liver microsomes, for 0, 2, 4, 6, 12 and 24 h (37° C.; 50 mM triethanolamine-HCl buffer; pH 7.8). […]
Where a SMILES comes first, the peptide text is derived from it. [ ]: non-standard residue; d: D form. ξ: configuration not given here. ξαMePhe(2-F) = CC(N)(Cc1ccccc1F)C(=O)O; hhPhe = N[C@@H](CCCc1ccccc1)C(=O)O; hArg = N=C(N)NCCCC[C@H](N)C(=O)O; ξαMeF = CC(N)(Cc1ccccc1)C(=O)O; ξαMeM = CSCCC(C)(N)C(=O)O; Nle = CCCC[C@H](N)C(=O)O; Aib = CC(C)(N)C(=O)O
property: half-life (min)

| compound | qualifier symbol | data value |
| --- | --- | --- |
| CC[C@H](C)[C@H](NC(=O)[C@H](CCC(=O)O)NC(=O)C(C)(C)NC(=O)[C@@H](NC(=O)C(C)(C)N)C(C)C)C(=O)N[C@@H](CCC(N)=O)C(=O)N[C@@H](CC(C)C)C(=O)NC(C)(CCSC)C(=O)N[C@@H](Cc1c[nH]cn1)C(=O)N[C@@H](CCC(N)=O)C(=O)N[C@@H](CCCCNC(=N)N)C(=O)N[C@@H](C)C(=O)N[C@@H](CCCCNC(=N)N)C(=O)NC(C)(Cc1ccccc1F)C(=O)N[C@@H](CCCc1ccccc1)C(N)=O (some centres unmarked) [Seq. ID. 930] (H-[Aib]V[Aib]EIQL[ξαMeM]HQ[hArg]A[hArg][ξαMePhe(2-F)][hhPhe]-NH2) | > | 1440 |
| CCCC[C@H](NC(=O)[C@H](CC(C)C)NC(=O)[C@H](CCC(N)=O)NC(=O)[C@@H](NC(=O)[C@H](CCC(=O)O)NC(=O)C(C)(C)NC(=O)[C@@H](NC(=O)C(C)(C)N)C(C)C)[C@@H](C)CC)C(=O)N[C@@H](Cc1c[nH]cn1)C(=O)N[C@@H](CCC(N)=O)C(=O)N[C@@H](CCCCNC(=N)N)C(=O)NC(C)(C)C(=O)N[C@@H](CCCCN)C(=O)NC(C)(Cc1ccccc1)C(N)=O (some centres unmarked) [Seq. ID. 10] (H-[Aib]V[Aib]EIQL[Nle]HQ[hArg][Aib]K[ξαMeF]-NH2) | = | 30 |
